experiment: chemical genetic growth profiling, strain panel (AID 1159580);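 also: tested at 20 µM; growth read once vehicle control cultures reached saturation at 30 °C; 1 = growth at the plate median or of vehicle wells; lower values mean less growth of the strain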; conditions: S. cerevisiae deletion strains, growth OD, locus YLR027C, strain aat2, stronger effect = lower value
In all, about 5,500 compounds went through this assay and about 2,000 (36%) were called active. Another 18% or so got no clear call; they are omitted. The list shows a part of the results.
Answer each item with its documented normalized growth.
Give your answer as a number; write no unit.

State its normalized growth: "C[C@H]1C[C@@H](O)[C@]2(O)[C@@]13CC(=O)OC[C@@]2(C)[C@](C)(O)C(=O)C3"
1.02

State its normalized growth: C[C@@H]1CC[C@H]2C(C)(C)C3CC12CC[C@@]3(C)O (some centres undefined)
0.781

State its normalized growth: "FC(F)(F)c1cccc(N2CCNCC2)c1"
0.993

State its normalized growth: "NC(N)=NCCCCN=C(N)N"
1

State its normalized growth: "COP(=S)(OC)Oc1ccc([N+](=O)[O-])cc1"
0.998

State its normalized growth: "CC[C@@H]1OC(=O)C[C@@H](O)[C@H](C)[C@@H](O[C@@H]2O[C@H](C)[C@@H](O)[C@H](N(C)C)[C@H]2O)[C@@H](CCN2C[C@H](C)C[C@H](C)C2)C[C@@H](C)C(=O)/C=C/C(C)=C\[C@@H]1CO[C@@H]1O[C@H](C)[C@@H](O)[C@@H](OC)[C@H]1OC"
0.994

State its normalized growth: "COP(=S)(OC)Oc1ccc(Sc2ccc(OP(=S)(OC)OC)cc2)cc1"
1

State its normalized growth: "NCCCNCCSP(=O)(O)O"
0.964

State its normalized growth: "Cc1onc(-c2ccccc2)c1-c1ccc(S(N)(=O)=O)cc1"
1.01
